# Assay Procedure: Mouse blood and tissue PK (LC/MS-MS)
# Type: in vivo
# Run Parameters: mouse, whole blood, po, 1 mg/kg, NCI-H441 #1 (1 mg/kg), QD x 28 days; read-out: Blood AUClast
Result Type: AUC(0-t) (ng·h/mL)
Form entry: value (ng·h/mL) — number only.

Input: Please look at this molecule and report its AUC(0-t): CCn1c(-c2cc(N3CCN(C)CC3)cnc2[C@H](C)OC)c2c3cc(ccc31)-c1csc(n1)C[C@H](NC(=O)[C@H]1C[C@@H]1C)C(=O)N1CCC[C@H](N1)C(=O)OCC(C)(C)C2
Output: 384

----------
# Tested on: panel of 78 cancer cell lines
# Assay Procedure: Cell panel 3D methylcellulose CellTiter-Glo proliferation
# Type: cell-based
# Run Parameters: Homo sapiens, COR-L23, CORL23; KRAS G12V; Lung; read-out: Proliferation Inhibition (EC50)
Result Type: EC50 (nM)
Form entry: value (nM) — number only.

Input: Please look at this compound and report its EC50: CCn1c(-c2cc(N3CCN(C)CC3)cnc2[C@H](C)OC)c2c3cc(ccc31)-c1csc(n1)C[C@H](NC(=O)[C@H]1C[C@@H]1C)C(=O)N1CCC[C@H](N1)C(=O)OCC(C)(C)C2
Output: 8.6

----------
# Assay Procedure: Mouse blood and tissue PK (LC/MS-MS)
# Assay type: in vivo
# Run Parameters: mouse, whole blood, po, 10 mg/kg, NCI-H441 (10 mg/kg), single dose; read-out: Blood t1/2 (converted)
Result Type: half-life
Give the value; after it, write the unit.

Input: Please look at this molecule and report its half-life: CCn1c(-c2cc(N3CCN(C)CC3)cnc2[C@H](C)OC)c2c3cc(ccc31)-c1csc(n1)C[C@H](NC(=O)[C@H]1C[C@@H]1C)C(=O)N1CCC[C@H](N1)C(=O)OCC(C)(C)C2
Output: 2.93 h

----------
# Assay Procedure: Mouse blood and tissue PK (LC/MS-MS)
# Format: in vivo
# Run Parameters: mouse, tumor, oral, 3 mg/kg, NCI-H441 xenograft tumor, study NCI-H441#6, 3 mg/kg, 48h; read-out: RMC-6236 (nM) Tumor
Result Type: concentration at 48 h (nM)
Form entry: value (nM) — number only.

Input: Please look at this compound and report its concentration at 48 h: CCn1c(-c2cc(N3CCN(C)CC3)cnc2[C@H](C)OC)c2c3cc(ccc31)-c1csc(n1)C[C@H](NC(=O)[C@H]1C[C@@H]1C)C(=O)N1CCC[C@H](N1)C(=O)OCC(C)(C)C2
Output: 63

----------
# Assay Procedure: Mouse blood and tissue PK (LC/MS-MS)
# Format: in vivo
# Run Parameters: mouse, tumor, oral, 0.3 mg/kg, NCI-H441 xenograft tumor, study NCI-H441#10, 0.3 mg/kg, 24h; read-out: RMC-6236 (nM) Tumor
Result Type: concentration at 24 h (nM)
Form entry: value (nM) — number only.

Input: Please look at this compound and report its concentration at 24 h: CCn1c(-c2cc(N3CCN(C)CC3)cnc2[C@H](C)OC)c2c3cc(ccc31)-c1csc(n1)C[C@H](NC(=O)[C@H]1C[C@@H]1C)C(=O)N1CCC[C@H](N1)C(=O)OCC(C)(C)C2 [RMC-6236]
Output: 36.8

----------
# Assay Procedure: Mouse blood and tissue PK (LC/MS-MS)
# Type: in vivo
# Run Parameters: mouse, tumor, oral, 10 mg/kg, HPAC #4; 10 mg/kg, 4h; individual animals; read-out: RMC-6236 (nM) Tumor
Result Type: concentration at 4 h (nM)
Form entry: value (nM) — number only.

Input: Please look at this compound and report its concentration at 4 h: CCn1c(-c2cc(N3CCN(C)CC3)cnc2[C@H](C)OC)c2c3cc(ccc31)-c1csc(n1)C[C@H](NC(=O)[C@H]1C[C@@H]1C)C(=O)N1CCC[C@H](N1)C(=O)OCC(C)(C)C2
Output: 817
